These entries and their values trace back to PubChem BioAssay (NCI).

- Tested on: U251 CNS
- ASSAY: NCI tumour cell line growth inhibition, 48 h
PROPERTY NAME: TGI

I have this molecule here, "CCN(CC)CCCN1C(=O)c2c(c(C)c3c(oc4ccc(O)cc43)c2C)C1=O" , and I need its recorded TGI.
2.98 µM

Quick check: TGI of "O=C1c2[nH]cc(CN3CCN(CCO)CC3)c2C(=O)c2c1c(O)c1ccccc1c2O" ?
25.9 µM

Item "CS(=O)(=O)Nc1ccc(Nc2cc[nH]c3ccc4nccc4c23)cc1" has what recorded TGI?
22 µM

For "CCOC(=O)NC(=O)c1cn(-c2ccc(CCOC(=O)NCCCCCCNC(=O)OCCc3ccc(-n4c(=O)[nH]cc(C(=O)NC(=O)OCC)c4=O)cc3)cc2)c(=O)[nH]c1=O" , what is its reported TGI?
> 74.9 µM

###

- Tested on: CAKI-1 renal
- ASSAY: NCI tumour cell line growth inhibition, 48 h
Where a SMILES comes first, the peptide text is derived from it. [ ]: non-standard residue; d: D form. Ac5c = NC1(C(=O)O)CCCC1
PROPERTY NAME: TGI

Test system CAKI-1 renal; read-out TGI; what value for "O=C(O)C1(C(=O)O)CC1" ?
> 100 µM

Under CAKI-1 renal: TGI value of "c1cc(N2CCN(c3ccc(C4=NCCN4)cc3)CC2)ccc1C1=NCCN1" ?
> 100 µM

Short answer please: TGI, CAKI-1 renal, entry CO[C@]12CC(=O)C3(C(C[C@H]4CC5CCC6=CC(=O)CC[C@]6(OC(C)=O)C5C[C@@]43C)C1)C1C[C@H]3[C@@H]4CCC5=CC(=O)CC[C@]5(OC(C)=O)[C@H]4CC[C@]3(C)C12 (some centres undefined)
> 100 µM

Notebook: pull reported TGI for CAKI-1 renal, entry CC12OC3(O)C4C5CC(C6C5C3C61)C42 (centres undefined)
> 100 µM

What TGI appears in the records for this compound with CAKI-1 renal? "O=C(O)CCc1nc2c(n1Cc1ccccc1)C(=O)c1ccccc1C2=O"
> 100 µM

# returns recorded TGI (system: CAKI-1 renal) for "Cn1c2ccccc2c(=NNc2ccc(S(N)(=O)=O)cc2)c2ccccc21"
> 50 µM

Please state recorded TGI (tested on CAKI-1 renal) of "Fc1cc(-c2cc(-c3ccccc3)n[nH]2)c(Cl)cc1Cl"
> 100 µM

Find TGI (CAKI-1 renal) for the entry "COc1c(-c2nc3nc(N4CCN(C)CC4)ccc3[nH]2)cc(OC)c2c1nc(CO)n2C"
> 100 µM

Enter reported TGI observed with CAKI-1 renal for NCC(=O)NC1(C(=O)O)CCCC1 (H-Gly-[Ac5c]-OH)
> 100 µM

Any idea what TGI came out for "CCCn1c2c(c3ccccc3c1=O)C(=O)c1cc3c(cc1-2)OCO3" on CAKI-1 renal?
> 100 µM

Lab note: need TGI with CAKI-1 renal for entry O=c1[nH]c2cc(Cl)ccc2nc1/C(=N/Nc1ccccc1)C(O)c1ccco1 (centres undefined) , please look it up.
> 100 µM

For CAKI-1 renal, provide TGI of "CCCCCOC(=O)C(=O)Nc1n[nH]nc1C(N)=O" please.
> 100 µM

// lookup TGI | system=CAKI-1 renal | key= "Cc1cc(C)c2c(=O)cc(-c3cccc(Cl)c3)[nH]c2n1"
> 100 µM

Recorded TGI for "CN(C(=O)c1cccs1)C(=S)N1CCN(c2ccccn2)CC1" with CAKI-1 renal, please?
> 100 µM

Item COC(=O)C(Cc1nc2ccc(Cl)cc2[nH]c1=O)/C(=N/O)C(=O)Nc1cccc(Cl)c1C (centres undefined) with CAKI-1 renal - TGI?
> 100 µM

Form field - read-out: TGI; system: CAKI-1 renal; submitted item: "[N-]=[N+]=NC1=CC(=O)c2cccc3cccc1c23"
> 100 µM

Please tell me: TGI of COC(=O)C(C(=O)C(=O)Nc1ccc(Br)cc1)c1nc2ccc(Cl)cc2[nH]c1=O (centres undefined) , system CAKI-1 renal?
> 100 µM

API: value(readout=TGI, system=CAKI-1 renal) for record "COc1cccc(NC(=O)CC(=O)Nc2cccc(OC)c2)c1"
> 100 µM

For the record C[Si]1(C)C(c2ccccc2)=CC2C(c3ccccc3)(c3ccccc3)OC21c1ccccc1 (centres undefined) , what value of TGI is listed for CAKI-1 renal?
> 100 µM

Query for CAKI-1 renal: what TGI does the record show for CC1(C)CC2=C(SC3C=CC=CC3N2)C(=O)C1C(=O)C(N)=O (centres undefined) ?
> 100 µM

Give recorded TGI with CAKI-1 renal for the following compound: C=CCCC(=O)N1CCC(C(=O)OCC)C1=O (centres undefined)
> 100 µM

Kindly state the measured TGI obtained for "Cc1nc2c(=O)n(C)c(=O)n(C)c2o1" with CAKI-1 renal.
> 100 µM

Find the measured TGI: item CC(C)(Oc1ccc(Cl)cc1)C(=O)NC1C2CC3CC1CC(NS(C)(=O)=O)(C3)C2 (centres undefined) , target or system CAKI-1 renal.
> 100 µM

Requested read-out TGI, target or system CAKI-1 renal, entry C=CC(O)C#Cc1cnc(OC)nc1OC (centres undefined)
> 100 µM

###

- Test system: U251 CNS
- ASSAY: NCI tumour cell line growth inhibition, 48 h
PROPERTY NAME: TGI

Any idea what its TGI is? The compound is O=NN(CCCl)C(=O)NC1CCC(C(=O)O)CC1 (stereo not drawn)
> 100 µM

Look up TGI: "COC(=O)[C@](NC(=O)OCc1ccccc1)([C@@H](C)Sc1ccc(C)cc1)C(F)(F)F"
> 100 µM

Can you look up the measured TGI of "Oc1ccc(/C=C/c2ccc(O)cc2)cc1" for me?
> 100 µM

###

- Tested on: SNB-75 CNS
- ASSAY: NCI tumour cell line growth inhibition, 48 h
Where a SMILES comes first, the peptide text is derived from it. [ ]: non-standard residue; d: D form. Ac5c = NC1(C(=O)O)CCCC1
Would you mind telling me the reported TGI of each entry?

Record request: TGI value, item "O=C(O)C1(C(=O)O)CC1"
> 100 µM

Suppose we examine the molecule "O=C(Nc1cccc(-n2cc(-c3ccncc3)c(-c3ccc(Cl)c(O)c3)n2)c1)Nc1cccc(C(F)(F)F)c1" ; what TGI value has been reported?
> 32.5 µM

Need TGI of "O=C(NC1CCCCC1)NS(=O)(=O)c1ccc(-n2nc3c(c2-c2cccs2)Cc2ccccc2-3)cc1" , thanks.
> 100 µM

Report TGI for "COc1ccc2c(c1)CC[C@@H]1[C@@H]2CC[C@]2(C)C(c3ccsc3)=C(/C=C/C(=O)c3ccccc3)C[C@@H]12" please.
> 100 µM

Entry under review: Cc1nn(C(=O)Cc2ccccc2)c2c1C(c1ccc3ccccc3c1O)SC(N)=N2 (configuration not stated) . Reported TGI?
> 100 µM

Return reported TGI; argument: COc1cc(Br)c(CC2NCCc3cc(OC)c(OC)cc32)cc1OC (configuration not stated)
> 100 µM

Requested field: TGI. Item: COc1ccc(C2CC(c3ccc4ccccc4c3O)=NN2)cc1OC (configuration not stated)
> 100 µM

I would be grateful if you could share the reported TGI for "Nc1ccccc1C(=O)CCc1c[nH]c2ccccc12" .
> 100 µM

Need TGI of NCC(=O)NC1(C(=O)O)CCCC1 (H-Gly-[Ac5c]-OH) , thanks.
> 100 µM

Please report the recorded TGI for "C[C@H](CCC(=O)O)[C@H]1CC[C@H]2[C@@H]3[C@@H](O)C[C@@H]4C[C@H](O)CC[C@]4(C)[C@H]3CC[C@]12C" .
> 100 µM

What does the record list as TGI for "Cc1ccc(NC(=O)CC/C(CC(=O)C(C)(C)C)=N/Nc2nnc(C)n2N)cc1C" ?
> 100 µM

Fill in: TGI of CCC#CCCCCCCCCC(F)C(=O)O (configuration not stated) is ___
> 100 µM

###

- Tested on: HCC-2998 colon
- ASSAY: NCI tumour cell line growth inhibition, 48 h
PROPERTY NAME: TGI

// TGI lookup, key: CC1CN=C(N(C)C(=O)Nc2ccc(Cl)cc2)S1 (stereo unspecified)
> 100 µM

Can you look up the measured TGI of "CN1CCN(C(=S)N(C(=O)c2cccs2)c2ccccc2)CC1" for me?
> 100 µM

Please give the measured TGI for this molecule: COc1ccc(C2CC(c3ccc4ccccc4c3O)=NN2)cc1OC (stereo unspecified)
> 100 µM

// returns reported TGI for input "CCCCSSC(=S)N(CC)CC"
> 100 µM

So what does the record say about TGI for O=NN(CCCl)C(=O)NC1CCC(C(=O)O)CC1 (stereo unspecified) ?
> 100 µM

Request the reported TGI associated with "Cc1ccc(NC(=O)CC/C(CC(=O)C(C)(C)C)=N/Nc2nnc(C)n2N)cc1C"
> 100 µM
